Biological target: DLG1_3, Q12959
Sequence (Q12959 457-571): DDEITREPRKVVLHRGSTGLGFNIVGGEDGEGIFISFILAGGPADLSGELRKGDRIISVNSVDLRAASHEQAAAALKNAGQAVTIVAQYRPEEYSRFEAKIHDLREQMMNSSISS
Assay: holdup assay
Set-up: key: below the threshold = too weak to quantify, mostly under pKd 3.1 to 4
Details: plain residues with an end cap or a label only (N-terminal biotin on a linker: ado-ado)
Measured Endpoint: pKd

Look over these answered cases.
Look at this binder and give its reported pKd. RSSGGDDFWF [KCNV1, Q6PIU1]
3.57

I'd like to know its pKd. The binder in question is EDPRVEVTQF [SLC22A9, Q8IVM8]
below the threshold

Please report the recorded pKd for LKDDELKTKL [SLCO1A2, P46721] .
below the threshold

Data request, read-out pKd, for PYSESDDDWC [CACNA1A, O00555]
below the threshold

Give its pKd value. Item: ILRKSTTTTV [PRR16, Q569H4]
3.63

Others:
Which measured pKd value corresponds to LPAVCYDIDI [PTTG2, Q9NZH5] ?
below the threshold

So what's the measured pKd for this one? AEASVACSLC [PTGIR, P43119]
below the threshold

Entry TISFTQTSQF [SLC1A1, P43005] : reported pKd = ?
below the threshold

Suppose we examine the binder PSVGSKKTVL [REELD1, A0A1B0GV85] ; what pKd value has been reported?
below the threshold

Field request: pKd | item: ARSAAASNYV [CLDN4, O14493]
below the threshold

What value of pKd has been recorded for this entry: NIAESLESLV [PTPRZ1, P23471]
below the threshold
